# Tested on: Escherichia coli TOP10;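 also: peptides expressed intracellularly from a pBAD plasmid library in pooled LB shake-flask culture, induced with 0.3% L-arabinose, DNA abundance read by NGS, three biological replicates, DESeq2 with apeglm shrinkage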
# test_method_notes: shrunken log2 fold change of peptide-encoding DNA abundance (4.5 h post-induction vs induction); higher = less antimicrobial activity (less host growth inhibition)
# experimental_context: time post-induction: 4.5 h; library: site-saturation at positions 5, 18, 19, 20
Assign Satisfied to entries whose shrunken log2 fold change meets or exceeds 0.02; assign Not satisfied to the rest.

sequence_content: RRIRQRPPRLPRPRPRPMLNPRP
category: Not satisfied
--
sequence_content: RRIRPRPPRLPRPRPRPINQPRP
category: Not satisfied
--
sequence_content: RRIRYRPPRLPRPRPRPVPRPRP
category: Satisfied
--
sequence_content: RRIRARPPRLPRPRPRPRCYPRP
category: Satisfied
--
sequence_content: RRIRLRPPRLPRPRPRPGMGPRP
category: Satisfied
--
sequence_content: RRIRTRPPRLPRPRPRPLMDPRP
category: Not satisfied
--
sequence_content: RRIRRRPPRLPRPRPRPHQRPRP
category: Satisfied
--
sequence_content: RRIRPRPPRLPRPRPRPIGCPRP
category: Not satisfied
--
sequence_content: RRIRERPPRLPRPRPRPPIPPRP
category: Satisfied
--
sequence_content: RRIRGRPPRLPRPRPRPCLYPRP
category: Satisfied
--
sequence_content: RRIRVRPPRLPRPRPRPRCIPRP
category: Not satisfied
--
sequence_content: RRIRERPPRLPRPRPRPMKCPRP
category: Not satisfied
--
sequence_content: RRIRYRPPRLPRPRPRPDNYPRP
category: Not satisfied
--
sequence_content: RRIRRRPPRLPRPRPRPLKDPRP
category: Not satisfied
--
sequence_content: RRIRQRPPRLPRPRPRPIYHPRP
category: Not satisfied
--
sequence_content: RRIRTRPPRLPRPRPRPKYDPRP
category: Not satisfied
--
sequence_content: RRIRDRPPRLPRPRPRPFPYPRP
category: Not satisfied
--
sequence_content: RRIRPRPPRLPRPRPRPMLCPRP
category: Satisfied
--
sequence_content: RRIRARPPRLPRPRPRPMIDPRP
category: Satisfied
--
sequence_content: RRIRYRPPRLPRPRPRPWAQPRP
category: Not satisfied
--
sequence_content: RRIRFRPPRLPRPRPRPTWWPRP
category: Satisfied
--
sequence_content: RRIRYRPPRLPRPRPRPGKMPRP
category: Not satisfied
--
sequence_content: RRIRPRPPRLPRPRPRPSQGPRP
category: Not satisfied
--
sequence_content: RRIRYRPPRLPRPRPRPVIRPRP
category: Not satisfied
--
sequence_content: RRIRSRPPRLPRPRPRPSPPPRP
category: Satisfied
--
sequence_content: RRIRDRPPRLPRPRPRPAPRPRP
category: Satisfied
--
sequence_content: RRIRDRPPRLPRPRPRPFQNPRP
category: Satisfied
--
sequence_content: RRIRERPPRLPRPRPRPIVAPRP
category: Satisfied
--
sequence_content: RRIRSRPPRLPRPRPRPQSAPRP
category: Satisfied
--
sequence_content: RRIRSRPPRLPRPRPRPNNNPRP
category: Not satisfied
--
sequence_content: RRIRLRPPRLPRPRPRPDVSPRP
category: Satisfied
